The measurements presented in this section are drawn from patent US20100222280A1.

target: TGF-β1 (Roche); experiment: cell-based or functional assay
Sequence (P01137 279-390): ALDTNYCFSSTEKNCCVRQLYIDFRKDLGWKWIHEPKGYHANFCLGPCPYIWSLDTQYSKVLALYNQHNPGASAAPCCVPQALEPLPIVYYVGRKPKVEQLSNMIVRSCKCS
% Inhibition (Mv-1-Lu cell line growth reestablishment, 3H-thymidine) values by entry
Write the figure, then the unit, nothing else.

[Q] Hello, please tell me recorded % Inhibition (Mv-1-Lu cell line growth reestablishment, 3H-thymidine) for this one: RRWVRYPVHLHSPIV (15-aa peptide) [peptide identified by SEQ ID NO: 5]
[A] 15.8%

[Q] Hello, please tell me recorded % Inhibition (Mv-1-Lu cell line growth reestablishment, 3H-thymidine) for this one: WHKYFLRRPLSVGLG (15-aa peptide) [peptide identified by SEQ ID NO: 12]
[A] 10.7%

[Q] Hello, please tell me recorded % Inhibition (Mv-1-Lu cell line growth reestablishment, 3H-thymidine) for this one: SGRRHLHRHHIFSLP (15-aa peptide) [peptide identified by SEQ ID NO: 14]
[A] 3.62%

[Q] Hello, please tell me recorded % Inhibition (Mv-1-Lu cell line growth reestablishment, 3H-thymidine) for this one: VPMALNHGVYVMVSS (15-aa peptide) [peptide identified by SEQ ID NO: 22]
[A] 4.13%

[Q] Hello, please tell me recorded % Inhibition (Mv-1-Lu cell line growth reestablishment, 3H-thymidine) for this one: RFFTRFPWHYHASRL (15-aa peptide) [peptide identified by SEQ ID NO: 3]
[A] 25.4%

[Q] Hello, please tell me recorded % Inhibition (Mv-1-Lu cell line growth reestablishment, 3H-thymidine) for this one: PPYHRFWRGHRHAVQ (15-aa peptide) [peptide identified by SEQ ID NO: 6]
[A] 12.8%

[Q] Hello, please tell me recorded % Inhibition (Mv-1-Lu cell line growth reestablishment, 3H-thymidine) for this one: TSLDASIIWAMMQN [peptide identified as P144 in the Spanish patent application ES 2146552 A1 (SEQ ID NO: 51)]
[A] 7.26%
